# reported absorption maximum; entries follow
PROCEDURE TEXT: solvent given as SMILES
EXPERIMENTAL CONDITIONS: in CS(C)=O
Give a bare numeral; the unit nm is implied.

> print(dat)
                           smiles.record  readout.number
1  Brc1ccc(N/C=C/C=[NH+]c2ccc(Br)cc2)cc1             386

The reported value for `CC(=O)c1c2c(cc3c(N(C)C)cccc13)CCC2` in terms of absorption maximum is 334

The reported value for `O=Cc1cc(C=O)c2ccc3c(N4CCCCC4)cc(N4CCCCC4)c4ccc1c2c43` in terms of absorption maximum is 535

The reported value for `CCCCN1C(=S)c2cccc3c(N(C)C)ccc(c23)C1=S` in terms of absorption maximum is 588

The reported value for `Fc1ccccc1-c1nc2sc3ccccc3c2s1` in terms of absorption maximum is 344

The reported value for `C(=C\c1nc2ccccc2[nH]1)/c1ccc(/C=C/c2nc3ccccc3[nH]2)cc1` in terms of absorption maximum is 392

The reported value for `N#Cc1c(/C=C/c2ccc(N(c3ccccc3)c3ccccc3)cc2)cc(-c2cccs2)cc1N1CCCCC1` in terms of absorption maximum is 404

The reported value for `CC(C)[Si]1(C(C)C)c2cc(N(C)C)ccc2-c2ccc(C(F)(F)F)cc21` in terms of absorption maximum is 344

The reported value for `CN(C)c1ccc(C#Cc2ccc(C=O)cc2)cc1` in terms of absorption maximum is 387

The reported value for `COc1ccc(-c2cc(-c3ccc(C)cc3)c(C#N)c(OC)n2)cc1` in terms of absorption maximum is 344

The reported value for `CCC1=C(C)C2=C(c3c(C)cc(C)nc3-c3cccs3)c3c(C)c(CC)c(C)n3[B-](F)(F)[N+]2=C1C` in terms of absorption maximum is 534

The reported value for `O=C1/C(=C/C=C/c2cc3c4c(c2)CCCN4CCC3)CC/C1=C\C=C\c1cc2c3c(c1)CCCN3CCC2` in terms of absorption maximum is 539

The reported value for `CCCCCn1c2ccc(S(=O)(=O)Cl)cc2c(=O)c2cc(S(=O)(=O)Cl)ccc21` in terms of absorption maximum is 406

The reported value for `COc1ccc(/C=C/C(=O)c2ccccc2O)cc1OC` in terms of absorption maximum is 365

The reported value for `O=C1/C(=C2\Sc3ccc(S(=O)(=O)O)cc3C2=O)Sc2ccc(S(=O)(=O)O)cc21` in terms of absorption maximum is 553

The reported value for `COc1ccc(-c2c3nc(c(-c4ccc(OC)cc4)c4ccc([nH]4)c(-c4ccc(OC)cc4)c4nc(c(-c5ccc(OC)cc5)c5ccc2[nH]5)C=C4N2CCOCC2)C=C3)cc1` in terms of absorption maximum is 660
